So I've got a bunch of compounds here, and I need their Inhibition values.
Tested on: Plasmodium falciparum
Assay: GSK_TCMDC: Inhibition of Plasmodium falciparum Dd2 in whole red blood cells, using parasite LDH activity as an index of growth. Test compounds present at 2uM
Type: functional
One number for each entry, in %.

# count of solved cases: 8
compound: Fc1cccc(-c2ccc3c(c2)CC(NCc2c[nH]c4cnccc24)C3)c1 (centres undefined)
assay target: Plasmodium falciparum
assay readout: Inhibition
units label: %
recorded measurement: 68
--
compound: COc1ccccc1C1CCN(C2CCC(NC(=O)/C=C/c3cc(C(F)(F)F)ccc3F)CC2)CC1 (centres undefined)
assay target: Plasmodium falciparum
assay readout: Inhibition
units label: %
recorded measurement: 32
--
compound: CCCc1cc(NCC)nc(Nc2ccc(F)cc2)n1
assay target: Plasmodium falciparum
assay readout: Inhibition
units label: %
recorded measurement: 36
--
compound: COc1ccc(CCC(C)(C)NCC(O)c2cccc(C(F)(F)F)c2)cc1 (centres undefined)
assay target: Plasmodium falciparum
assay readout: Inhibition
units label: %
recorded measurement: 98
--
compound: SC(=Nc1ccc(Cl)c(Cl)c1)NN=Cc1ccccn1
assay target: Plasmodium falciparum
assay readout: Inhibition
units label: %
recorded measurement: 85
--
compound: Cc1cc(NC(=O)Nc2ccc(N(C)C)cc2)c2cc(Cl)ccc2n1.Cl
assay target: Plasmodium falciparum
assay readout: Inhibition
units label: %
recorded measurement: 50
--
compound: O=C(c1ccc(-c2ccc(-c3nc4cc(C(F)(F)F)ccc4[nH]3)s2)cc1)N1CCN(CCc2ccccc2)CC1
assay target: Plasmodium falciparum
assay readout: Inhibition
units label: %
recorded measurement: 60
--
compound: CC(=O)c1c(Nc2c(C)cc(C)cc2C)oc(C)cc1=O
assay target: Plasmodium falciparum
assay readout: Inhibition
units label: %
recorded measurement: 83

Dear reader, for each entry below, please note its Inhibition.
1. CC(C)(C)c1ccc(NC(=O)c2ccc(CN3CCCN(Cc4ccsc4)CC3)cc2)cc1.O=C(O)C(F)(F)F
2. O=C(O)C(F)(F)F.c1cc(CNCC2CCCO2)cc(-c2ccc(-c3nc4ccccc4[nH]3)s2)c1 (centres undefined)
3. CCCN(CCC)CCOc1ccc(C(O)(C#CC(O)(c2ccc(OCCN(CCC)CCC)cc2)c2cccc(Cl)c2)c2cccc(Cl)c2)cc1 (centres undefined)
4. CN(C)CCCNc1ncnc2c1[nH]c1ccc(F)cc12
5. CC(C)Cn1cc(C2CCN(CCN3CCC(CNC(=O)c4ccc(NC(=O)c5ccc(Cl)cc5)cc4)CC3)CC2)c2ccccc21
6. Cc1cc(Nc2cccc(C#N)c2)nc(Nc2ccccc2C)n1

0
30
98
0
99
46

Dear reader, for each entry below, please note its Inhibition.
1. O=C(O)C(F)(F)F.O=S(=O)(NCCN1CCCC1)c1ccc(-c2ccc(CN3Cc4ccccc4C3)cc2)s1
2. O.O=C1C([N+](=O)[O-])=C(O)c2c(F)cccc21
3. CCc1c[nH]c2c(N(c3ccccc3)S(C)(=O)=O)cc(C(=O)N[C@@H](Cc3ccccc3)[C@H](O)CNCc3cccc(C(F)(F)F)c3)cc12.O=CO

18
13
98

Dear reader, for each entry below, please note its Inhibition.
1. Cc1cc(CNCCCCCNCc2cccc([N+](=O)[O-])c2)ccc1O
2. Oc1ccc2ccccc2c1C=NNc1nc(=Nc2ccccc2)[nH]c(=Nc2ccccc2)[nH]1

1: 0; 2: 73
